Test system: HepG2-ACTB-RAB5A
Run Description: phenotypically active (imaging signature differs from DMSO and reproducible) at any of 0.3-9 uM (binary (1 = active, 0 = inactive)); higher = active
Measurement Conditions: treatment time: 24 h
Possible outcomes: T = active, F = inactive

{"Compound": "Cc1cc(F)c(Nc2ncnc3cc(OCc4ccccc4)ccc23)cc1O", "Class": "F"}
{"Compound": "COc1ccc(-c2ccc3cc(C(=O)O)ccc3c2)cc1C12CC3CC(CC(C3)C1)C2 [Adapalene]", "Class": "F"}
{"Compound": "CC(C)(C)c1ccc2cc(C#N)c(C#N)cc2c1", "Class": "F"}
{"Compound": "Nc1nnc(-c2cccc(Cl)c2Cl)c(N)n1 [lamotrigine]", "Class": "F"}
{"Compound": "Cc1cc(C)nc(SCC(=O)Nc2ncc(Cc3cccc4ccccc34)s2)n1", "Class": "F"}
{"Compound": "CN(C)C1CCN(C(=O)c2ccc(NC(=O)Nc3ccc(-c4nc(N5CCOCC5)nc(N5CCOCC5)n4)cc3)cc2)CC1", "Class": "T"}
{"Compound": "Cc1ccc(-n2nc(C(C)(C)C)cc2NC(=O)Nc2ccc(OCCN3CCOCC3)c3ccccc23)cc1", "Class": "T"}
{"Compound": "Cc1ccc([N+](=O)[O-])cc1S(=O)(=O)N(C)C", "Class": "F"}
{"Compound": "O=C1NCCN1CCN1CCC(c2cn(-c3ccc(F)cc3)c3ccc(Cl)cc23)CC1 [sertindole]", "Class": "T"}
{"Compound": "CCCCOc1c(C(=O)c2c(F)cc(C)cc2F)cnc2[nH]ncc12", "Class": "T"}
